Molecular target: Mitogen-activated protein kinase kinase kinase kinase 1 (Homo sapiens, UniProt Q92918)
Sequence (Q92918 whole entry): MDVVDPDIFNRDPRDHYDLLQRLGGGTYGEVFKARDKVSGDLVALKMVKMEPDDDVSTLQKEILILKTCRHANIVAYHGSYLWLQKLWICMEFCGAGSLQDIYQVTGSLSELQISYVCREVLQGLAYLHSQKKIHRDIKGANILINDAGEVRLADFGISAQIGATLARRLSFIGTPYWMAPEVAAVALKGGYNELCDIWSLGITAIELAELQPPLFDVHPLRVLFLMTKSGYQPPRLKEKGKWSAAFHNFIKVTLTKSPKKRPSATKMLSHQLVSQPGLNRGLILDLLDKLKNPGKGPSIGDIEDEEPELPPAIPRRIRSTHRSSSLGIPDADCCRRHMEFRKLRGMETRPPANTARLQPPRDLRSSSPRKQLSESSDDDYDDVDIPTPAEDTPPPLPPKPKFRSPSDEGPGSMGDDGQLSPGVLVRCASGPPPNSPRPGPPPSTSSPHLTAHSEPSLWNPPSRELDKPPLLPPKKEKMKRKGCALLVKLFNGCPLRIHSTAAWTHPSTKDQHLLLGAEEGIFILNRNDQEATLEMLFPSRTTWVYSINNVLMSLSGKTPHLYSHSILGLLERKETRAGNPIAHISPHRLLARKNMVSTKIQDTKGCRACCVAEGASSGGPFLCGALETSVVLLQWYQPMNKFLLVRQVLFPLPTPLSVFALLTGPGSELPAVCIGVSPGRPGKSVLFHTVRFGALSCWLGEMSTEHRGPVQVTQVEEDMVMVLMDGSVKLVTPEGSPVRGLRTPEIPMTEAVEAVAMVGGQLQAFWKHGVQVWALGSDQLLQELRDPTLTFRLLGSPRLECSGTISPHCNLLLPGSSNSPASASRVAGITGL
Assay: Binding Assay: Lanth: For the binding assay, 4 ul 2×HPK1 and Eu-anti-GST antibody were added to each well of the assay plate using a Multidrop reagent dispenser. The solutions were incubated in a 23 C incubator for 1 h. To each well of the assay plate was added 4 ul 2× Tracer-222 using a Multidrop reagent dispenser. The solutions were again incubated in a 23 C incubator for 1 h. The results of the assay were read using an Envision plate reader with the following parameters: TR_FRET, 340ex/615 and 665em; 100 usec Delay; and 200 usec integration.
assayReadout: pKi
To interpret pKi, take it as minus log10 of a concentration measured in moles per litre.

Look over these answered cases.
• CCc1cc(=O)n(C)cc1-c1cc2cc(NC(=O)[C@@H]3C[C@@H]3F)ncc2c(N)n1 (racemic) = 6.36
• Cc1ccncc1-c1cc2cc(NC(=O)[C@@H]3C[C@@H]3F)ncc2c(N)n1 (racemic) = 9.42
• Cn1cc([C@H]2C[C@@H]2C(=O)Nc2cc3cc(-c4cnc5c(=O)n(C)ncc5c4)nc(N)c3cn2)cn1 (racemic) = 8.50
• Cc1ccncc1-c1cc2cc(NC(=O)[C@@H]3C[C@H]3c3cc[nH]n3)ncc2c(N)n1 (racemic) = 9.24
• COCCc1ccncc1-c1cc2cc(NC(=O)[C@H]3C[C@@H]3C#N)ncc2c(N)n1 (racemic) = 7.67

Please report the recorded pKi for Cc1ncc(N)c(C)c1-c1cc2cc(NC(=O)[C@@H]3C[C@H]3C)ncc2c(N)n1 (racemic) . 8.49

Next up: Cc1ccncc1-c1cc2cc(NC(=O)C3CC34CC4)ncc2c(N)n1 (racemic) 8.87

Query CC(=O)OC[C@@]1(C)C[C@@H]1C(=O)Nc1cc2cc(-c3cnccc3C)nc(N)c2cn1 (racemic) next 7.77

Try this molecule too: CC(O)Cc1ccncc1-c1cc2cc(NC(=O)[C@H]3C[C@@H]3C#N)ncc2c(N)n1 (mixture of isomers) 8.14

Would you mind doing Cc1ccncc1-c1cc2cc(NC(=O)[C@H]3C[C@@H]3CO)ncc2c(N)n1 (racemic) as well? 8.96

Can you check Cc1cc2[nH]cnc2cc1-c1cc2cc(NC(=O)[C@@H]3C[C@@H]3F)ncc2c(N)n1 (racemic) next? 8.10

# iterate: CCc1ccncc1-c1cc2cc(NC(=O)[C@@H]3C[C@@H]3C(N)=O)ncc2c(N)n1 (racemic) 7.59

Same question for Cc1cc2c(cc1-c1cc3cc(NC(=O)[C@@H]4C[C@@H]4F)ncc3c(N)n1)CC(=O)N2 (racemic) please. 8.55

Same read-out for Cc1ccncc1-c1cc2cc(NC(=O)[C@@H]3C[C@H]3c3cnn(C)c3)ncc2c(N)n1 (racemic) ? 9.64
